- subject of test: T1, CD40 ligand (UniProt P29965 108-261, limits assumed)
- T1 sequence (looked up): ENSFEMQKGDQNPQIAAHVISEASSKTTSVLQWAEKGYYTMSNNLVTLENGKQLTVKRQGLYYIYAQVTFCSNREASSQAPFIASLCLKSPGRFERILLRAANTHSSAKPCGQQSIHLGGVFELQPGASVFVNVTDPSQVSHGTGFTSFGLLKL
- measurement protocol: cell-based or functional assay
No end group written: not given here. PEG = not defined here
Could you please report measured EC50 PEGylated peptide, inhibition of CD40L-induced CD86 expression on primary B-cells for the items listed next?
Dear colleague, please return just the value in nM, with no unit written.

Tell me the measured EC50 PEGylated peptide, inhibition of CD40L-induced CD86 expression on primary B-cells of {PEG}-PPRYNLFFLFRFYSSFRRDYLYF (reading uncertain, also called PEGylated M1_9S) [PEGylated CD40L M1_9s] , please.
180

What about this binder? {PEG}-HPFSIKNVFSIWNFFSVY (reading uncertain, also called PEGylated M1_6S) [PEGylated CD40L M1_6s]
1.5

What about this binder? {PEG}-LPFVPYRSHVLKYGWFFPVQWSIFAVLPFQYLHRSR (reading uncertain, also called PEGylated M1-18S) [PEGylated CD40L M1_18s]
90
